target: human mAChR M1 (Homo sapiens, UniProt P11229); assay: mAChR M1 cell-based functional assay (calcium mobilization), PAM mode: increase in the EC20 acetylcholine response
parameter.measured: EC50 (nM)

>>> print(df.to_string())
                            smiles_notation  readout_units  experimental_value
0  [2H]C1([2H])c2ncccc2C(=O)N1Cc1c(C)cc(-c2ccc(F)c3nn(C([2H])([2H])[2H])cc23)cc1F             nM                 382
1  [2H]C1([2H])c2ncccc2C(=O)N1Cc1c(F)cc(-c2ccc3nn(C)cc3c2)cc1F             nM                 639
2  [2H]C1([2H])c2ncccc2C(=O)N1Cc1c(F)cc(-c2ccnc3nn(C)cc23)cc1C1CC1             nM                 140
3  [2H]C([2H])([2H])Oc1cnc2c(c1)C(=O)N(Cc1c(F)cc(-c3ccc4nn(C)cc4c3)cc1F)C2([2H])[2H]             nM                  76

====

biological target: human mAChR M1 (Homo sapiens); assay: mAChR M1 cell-based functional assay (calcium mobilization), PAM mode: increase in the EC20 acetylcholine response
pEC50: −log10 of the molar value.
parameter.measured: pEC50

>>> print(df.to_string())
                            smiles_notation  value_modifier  experimental_value
0  [2H]C1([2H])c2ncccc2C(=O)N1Cc1c(F)cc(-c2ccc(O)c3nn(C([2H])([2H])[2H])cc23)cc1F               =                6.71
1  [2H]C1([2H])c2ncccc2C(=O)N1Cc1c(F)cc(-c2cncc3nn(C)cc23)cc1F               ≤                5.00
2  [2H]C1([2H])c2ncccc2C(=O)N1Cc1ccc(-c2ccc(OCC3(C#N)CC3)c3nn(C)cc23)cc1F               =                6.56
3  [2H]C1([2H])c2ncccc2C(=O)N1Cc1ccc(-c2cnc3nn(C)cc3c2)cc1               =                5.28
4  [2H]C([2H])([2H])Oc1cnc2c(c1)C(=O)N(Cc1ccc(-c3ccc(OC)c4nn(C)cc34)cc1F)C2([2H])[2H]               =                6.67
5  [2H]C1([2H])c2ncccc2C(=O)N1Cc1ccc(-c2ccc(OC)c3nn(C([2H])([2H])[2H])cc23)cc1F               =                6.56
6  [2H]C1([2H])c2ncccc2C(=O)N1Cc1c(F)cc(-c2ccc(F)c3c2cnn3C([2H])([2H])[2H])cc1F               <                5.00

====

Target: human mAChR M1 (Homo sapiens)
Sequence (P11229 1-460): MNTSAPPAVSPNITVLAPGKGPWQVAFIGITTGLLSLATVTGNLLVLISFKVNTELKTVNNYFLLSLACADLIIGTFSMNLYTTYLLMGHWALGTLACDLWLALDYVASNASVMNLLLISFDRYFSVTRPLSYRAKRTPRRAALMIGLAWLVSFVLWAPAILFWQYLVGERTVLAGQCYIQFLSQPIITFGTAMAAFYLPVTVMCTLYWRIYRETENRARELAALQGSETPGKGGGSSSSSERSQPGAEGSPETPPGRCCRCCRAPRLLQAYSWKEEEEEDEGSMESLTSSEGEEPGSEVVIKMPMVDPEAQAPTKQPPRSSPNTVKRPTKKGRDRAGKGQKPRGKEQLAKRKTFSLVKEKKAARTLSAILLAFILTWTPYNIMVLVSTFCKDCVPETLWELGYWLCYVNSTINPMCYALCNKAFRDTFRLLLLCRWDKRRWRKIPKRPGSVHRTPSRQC
Assay: mAChR M1 cell-based functional assay (calcium mobilization), PAM mode: increase in the EC20 acetylcholine response
Protocol: Chinese hamster ovary (CHO-K1) cells stably expressing rat (r)M1 were purchased from the American Type Culture Collection and cultured according to their indicated protocol. […] Calcium flux was measured using the Functional Drug Screening System (FDSS) 6000 (Hamamatsu Corporation, Tokyo, Japan) as an increase in the fluorescent static ratio. […] Agonist activity was analyzed as a concentration-dependent increase in calcium mobilization upon compound addition. […]
parameter.measured: Emax (%)

>>> df
                                    molecule                  tested_target  parameter_measured  readout_units  experimental_value
 0  [2H]C1([2H])c2ncccc2C(=O)N1Cc1c(F)cc(-c2cccc3c2cnn3CC)cc1F [Compound 65]  human mAChR M1 (Homo sapiens)                Emax              %                  73
 1  [2H]C1([2H])c2ncccc2C(=O)N1Cc1c(F)cc(-c2cc(C)cc3nn(C)cc23)cc1F [Compound 32]  human mAChR M1 (Homo sapiens)                Emax              %                  86
 2  [2H]C1([2H])c2ncccc2C(=O)N1Cc1c(F)cc(-c2cccc3nn(C([2H])([2H])[2H])cc23)cc1OC [Compound 232]  human mAChR M1 (Homo sapiens)                Emax              %                  80
 3  [2H]C1([2H])c2ncccc2C(=O)N1Cc1c(F)cc(-c2ccc(OC)c3nn(C)cc23)cc1F [Compound 39]  human mAChR M1 (Homo sapiens)                Emax              %                  85
 4  [2H]C1([2H])c2ncccc2C(=O)N1Cc1c(F)cc(-c2ccc(OC)c3nn(C)cc23)cc1Cl [Compound 163]  human mAChR M1 (Homo sapiens)                Emax              %                  81
 5  [2H]C1([2H])c2ncccc2C(=O)N1Cc1ccc(-c2cc3cn(C)nc3cc2C)cc1 [Compound 16]  human mAChR M1 (Homo sapiens)                Emax              %                  55
 6  [2H]C1([2H])c2ncccc2C(=O)N1Cc1c(F)cc(-c2ccc3c(cnn3C([2H])([2H])[2H])c2)cc1F [Compound 101]  human mAChR M1 (Homo sapiens)                Emax              %                  75
 7  [2H]C1([2H])c2ncccc2C(=O)N1Cc1c(F)cc(-c2cc(F)c(F)c3c2cnn3C([2H])([2H])[2H])cc1F [Compound 252]  human mAChR M1 (Homo sapiens)                Emax              %                  15
 8  [2H]C1([2H])c2ncccc2C(=O)N1Cc1c(F)cc(-c2cn(C)c(=O)c3c2cnn3C([2H])([2H])[2H])cc1F [Compound 92]  human mAChR M1 (Homo sapiens)                Emax              %                  54
 9  [2H]C1([2H])c2ncccc2C(=O)N1Cc1c(F)cc(-c2cccc3nn(C)cc23)cc1F [Compound 1]  human mAChR M1 (Homo sapiens)                Emax              %                  84
10  [2H]C([2H])([2H])Oc1ccc(-c2cc(F)c(CN3C(=O)c4cccnc4C3([2H])[2H])c(F)c2)c2cnn(C([2H])([2H])[2H])c12 [Compound 95]  human mAChR M1 (Homo sapiens)                Emax              %                  72
11  [2H]C1([2H])c2ncccc2C(=O)N1Cc1c(F)cc(-c2ccc(SC)c3nn(C)cc23)cc1F [Compound 181]  human mAChR M1 (Homo sapiens)                Emax              %                  82
12  [2H]C1([2H])c2ncccc2C(=O)N1Cc1c(F)cc(-c2cccc3nn(C([2H])([2H])[2H])cc23)cc1F [Compound 31]  human mAChR M1 (Homo sapiens)                Emax              %                  84
13  [2H]C1([2H])c2ncccc2C(=O)N1Cc1c(F)cc(-c2ccc(O[C@@H](C)COC)c3nn(C)cc23)cc1F [Compound 171]  human mAChR M1 (Homo sapiens)                Emax              %                  81

Attribution: patent US20240228489A1
